From: patent US20210228562A1

# experimental.system: IRAK4 (Homo sapiens, UniProt Q9NWZ3)
# Construct: endogenous in cells; host or cells: OCI-LY10
# Sequence (Q9NWZ3 whole entry): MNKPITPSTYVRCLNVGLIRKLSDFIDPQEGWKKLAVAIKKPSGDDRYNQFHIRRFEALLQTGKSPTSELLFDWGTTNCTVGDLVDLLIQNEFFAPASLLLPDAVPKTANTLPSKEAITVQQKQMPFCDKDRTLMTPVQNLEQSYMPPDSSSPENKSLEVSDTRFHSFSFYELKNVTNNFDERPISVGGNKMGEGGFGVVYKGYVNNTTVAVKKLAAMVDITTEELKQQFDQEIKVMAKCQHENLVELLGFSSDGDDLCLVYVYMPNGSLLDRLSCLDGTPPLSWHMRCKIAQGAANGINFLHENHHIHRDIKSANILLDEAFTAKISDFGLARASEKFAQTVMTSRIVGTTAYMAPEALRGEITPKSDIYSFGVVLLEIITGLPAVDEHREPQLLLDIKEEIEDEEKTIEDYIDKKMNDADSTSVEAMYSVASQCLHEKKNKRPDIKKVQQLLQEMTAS
# method.description: IRAK4 MSD Degradation in OCI-LY10
# Format: cell-based
# applied.conditions: OCI-LY10 cells, 24 hrs incubation; read-out: IRAK4 degradation in OCI-LY10 at 24 hrs: DC50
DC50 for assorted compounds

Answered examples (5):
[
  {
    "compound": "CN(C[C@H]1CC[C@H](c2nc3cc(C(C)(C)O)c(NC(=O)c4cccc(C(F)(F)F)n4)cc3s2)CC1)[C@H]1CC[C@@H](CCNc2cccc3c2C(=O)N(C2CCC(=O)NC2=O)C3=O)CC1 (some centres unmarked)",
    "measurement.kind": "DC50",
    "assay.value": "50 to 100 nM"
  },
  {
    "compound": "CC(C)(O)c1cc2nc([C@H]3CC[C@@H](CN4CC5(CC(CCNc6cccc7c6C(=O)N(C6CCC(=O)NC6=O)C7=O)C5)C4)CC3)sc2cc1NC(=O)c1cccc(C(F)(F)F)n1 (some centres unmarked)",
    "measurement.kind": "DC50",
    "assay.value": "50 to 100 nM"
  },
  {
    "compound": "CN(C[C@H]1CC[C@H](c2nc3cc(C(C)(C)O)c(NC(=O)c4cccc(C(F)(F)F)n4)cc3s2)CC1)[C@H]1CC[C@H](Nc2cccc3c2C(=O)N(C2CCC(=O)NC2=O)C3=O)CC1 (some centres unmarked)",
    "measurement.kind": "DC50",
    "assay.value": "< 50 nM"
  },
  {
    "compound": "CN(C[C@H]1CC[C@H](c2nc3cc(C(C)(C)O)c(NC(=O)c4cccc(C(F)(F)F)n4)cc3s2)CC1)[C@H]1CC[C@]2(CC1)C[C@@H](CNc1cccc3c1C(=O)N(C1CCC(=O)NC1=O)C3=O)C2 (some centres unmarked)",
    "measurement.kind": "DC50",
    "assay.value": "50 to 100 nM"
  },
  {
    "compound": "CC(C)(O)c1cc2nc([C@H]3CC[C@H](CN4CC5(CC(CCNc6cccc7c6C(=O)N(C6CCC(=O)NC6=O)C7=O)C5)C4)CC3)sc2cc1NC(=O)c1cccc(C(F)(F)F)n1 (some centres unmarked)",
    "measurement.kind": "DC50",
    "assay.value": "< 50 nM"
  }
]

[ask] Quick one: DC50 of CC(C)(O)c1cc2nc([C@H]3CC[C@H](CN4CC5(CC(CCNc6cccc7c6C(=O)N([C@@H]6CCC(=O)NC6=O)C7=O)C5)C4)CC3)sc2cc1NC(=O)c1cccc(C(F)(F)F)n1 (single isomer, unassigned) ?
[reply] < 50 nM

[ask] Let us now turn to CC(C)(O)c1cc2nc([C@H]3CC[C@H](CN4CC5(CC(CCNc6cccc7c6C(=O)N(C6CCC(=O)NC6=O)C7=O)C5)C4)CC3)sc2cc1NC(=O)c1cccc(C(F)F)n1 (some centres unmarked)
[reply] < 50 nM

[ask] Let us now turn to Cc1cc(F)cc(C(=O)Nc2cc3sc([C@H]4CC[C@H](CN5CC6(CC(CCNc7cccc8c7C(=O)N(C7CCC(=O)NC7=O)C8=O)C6)C5)CC4)nc3cc2C(C)(C)O)n1 (some centres unmarked)
[reply] < 50 nM
